B1: mRNA-splicing (parent)
chain: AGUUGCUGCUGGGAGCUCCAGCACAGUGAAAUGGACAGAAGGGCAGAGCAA

Variants of: B1
assay details: exon inclusion enrichment index; higher = more inclusion; WT1 exon 5 minigene, HEK293
List of exon inclusion enrichment index values.
Just the number, please, no unit attached.

In: Return reported exon inclusion enrichment index. Input variant: AGUUAUAUAUGGGAGCUCCAGCACAGUGAAAUGGCGAGAAGGGCAGAGCAA
Out: 0.0383

In: Return reported exon inclusion enrichment index. Input variant: AGUUAGGGAUGGGAGCUCCAGACCAGUGAAAUGGACAGAAGGGCAGAGCAA
Out: 0.0031

In: Return reported exon inclusion enrichment index. Input variant: AGUUAGGGAUGGGAGCUCCAGCACAGUGAGGUGGACAGAAGGGCAGAGCAA
Out: 0.00115

In: Return reported exon inclusion enrichment index. Input variant: AGUUAGGGAUGGGAGCUCCACAACAGUGAAAUGGACAGAAGGGCAGAGCAA
Out: 0.00656

In: Return reported exon inclusion enrichment index. Input variant: AGUUCACACAUUGAGCUCCAGCACAGUGAAAUGGACAGAAGGGCAGAGCAA
Out: 0.037
